Tested on: HepG2
experiment: cytotoxicity call (relative viability < 0.9)
study.conditions: 10 µM
Among all 39,000 compounds or so, about 3,300 (8.5%) were called active. This excerpt belongs to a sample that is enriched for actives.
quantity: cytotoxicity call

[
  {
    "sample.smiles": "COc1ccc(OC(=O)N(C)C[C@H]2OCc3ccccc3-c3c(n(C)c4ccccc34)C(=O)N([C@H](C)CO)C[C@@H]2C)cc1",
    "quantity": "cytotoxicity call",
    "reported.measurement": "inactive"
  },
  {
    "sample.smiles": "CC(=O)Nc1ccc(CCN)cc1",
    "quantity": "cytotoxicity call",
    "reported.measurement": "inactive"
  },
  {
    "sample.smiles": "Cc1ccc(OC(=O)N(C)C[C@@H]2OCc3ccccc3-c3c(n(C)c4ccccc34)C(=O)N([C@H](C)CO)C[C@@H]2C)cc1",
    "quantity": "cytotoxicity call",
    "reported.measurement": "inactive"
  },
  {
    "sample.smiles": "CC(=O)c1c(O)c(C)c(O)c(Cc2c(O)c3c(c(C(=O)/C=C/c4ccccc4)c2O)OC(C)(C)C=C3)c1O",
    "quantity": "cytotoxicity call",
    "reported.measurement": "inactive"
  },
  {
    "sample.smiles": "CN1CCN(c2nc(=O)c3c([nH]2)CCCC3)CC1",
    "quantity": "cytotoxicity call",
    "reported.measurement": "inactive"
  },
  {
    "sample.smiles": "N[C@H]1Cc2ccccc2[C@@H]1O",
    "quantity": "cytotoxicity call",
    "reported.measurement": "inactive"
  },
  {
    "sample.smiles": "C[C@H]1CN([C@@H](C)CO)C(=O)CCCn2nncc2CO[C@H]1CN(C)C(=O)Oc1ccc2ccccc2c1",
    "quantity": "cytotoxicity call",
    "reported.measurement": "inactive"
  },
  {
    "sample.smiles": "O=C(O)[C@H]1N[C@H]2CC[C@@H]1C2",
    "quantity": "cytotoxicity call",
    "reported.measurement": "inactive"
  },
  {
    "sample.smiles": "C[C@H](CO)N1C[C@H](C)[C@@H](CN(C)C(=O)Oc2ccccc2)OCc2ccccc2-c2c(n(C)c3ccccc23)C1=O",
    "quantity": "cytotoxicity call",
    "reported.measurement": "inactive"
  },
  {
    "sample.smiles": "OC[C@H]1O[C@@H](Oc2ccc(/C=C/c3cc(O)cc(O)c3)cc2O)[C@H](O)[C@@H](O)[C@@H]1O",
    "quantity": "cytotoxicity call",
    "reported.measurement": "inactive"
  },
  {
    "sample.smiles": "CC(=O)O.Cc1cc2c(C(C)C)c(O)c(O)c(C=O)c2c(O)c1-c1c(C)cc2c(C(C)C)c(O)c(O)c(C=O)c2c1O",
    "quantity": "cytotoxicity call",
    "reported.measurement": "inactive"
  },
  {
    "sample.smiles": "COc1ccc(OC(=O)N(C)C[C@H]2OCc3ccccc3-c3c(n(C)c4ccccc34)C(=O)N([C@@H](C)CO)C[C@H]2C)cc1",
    "quantity": "cytotoxicity call",
    "reported.measurement": "inactive"
  },
  {
    "sample.smiles": "Cn1ccnc1N1CCNCC1",
    "quantity": "cytotoxicity call",
    "reported.measurement": "inactive"
  },
  {
    "sample.smiles": "CCOP(=S)(OCC)SCSP(=S)(OCC)OCC",
    "quantity": "cytotoxicity call",
    "reported.measurement": "inactive"
  }
]

These measurements were taken from the antibiotic and cytotoxicity screens of Wong et al. (2023).
